READOUT_LABEL: melting point (°C)

a = COc1ccc(-c2ccc(S(=O)(=O)NC(C)C(=O)O)cc2)cc1 (centres undefined)
b = CCCCOC(=O)CCCC
c = CC(=O)c1cc(Cl)cc(Cl)c1O
## Task Rank descending by melting point: all 3 compounds from above. Use the labels to give the ranking in the order requested.
## Result a, c, b

P = COc1ccc(NS(=O)(=O)c2ccc(N)cc2)nn1
Q = O=C(O)c1cc(O)[nH]c(=O)c1
R = Cc1ccc(-c2ccc(C)c(C)c2)cc1C
## Task Hey, quick one: sort these by melting point, largest value first please. Present the labels in the sequence the task asks for.
## Result Q, P, R
